Heads up, these compounds all have IC50 values measured for NS3 (Hepatitis C virus).

[
  {
    "Compound Smiles": "O=C(OC[C@H]1O[C@H](OC(=O)c2cc(O)c(O)c(O)c2)[C@H](OC(=O)c2cc(O)c(O)c(O)c2)[C@@H](OC(=O)c2cc(O)c(O)c(O)c2)[C@@H]1O)c1cc(O)c(O)c(O)c1",
    "IC50 (nM)": 750
  },
  {
    "Compound Smiles": "O=C(OC[C@H]1O[C@@H](OC(=O)c2cc(O)c(O)c(O)c2)[C@H](OC(=O)c2cc(O)c(O)c(O)c2)[C@@H](OC(=O)c2cc(O)c(O)c(O)c2)[C@@H]1OC(=O)c1cc(O)c(O)c(O)c1)c1cc(O)c(O)c(O)c1",
    "IC50 (nM)": 1600
  }
]
